experiment: Inhibition of HCV NS5B polymerase; parameters: species or system Hepacivirus hominis
OUTCOME MEASURE: pIC50
As a rule, pIC50 stands for the negative log10 of the concentration, concentration in M.

1) O=C(O)c1ccc2c(c1)nc(-c1ccoc1)n2C1CCCCC1	5.80

Now for the molecule whose pIC50 we want.
-- ask Given O=C(O)c1ccc2c(c1)nc(-c1ccccn1)n2C1CCCCC1 , state its recorded pIC50.
-- reply 5.37

----------
We begin with a simple list: items and their reported CC50.
test: Cytotoxicity against MDBK cells after 48 to 96 hrs by MTT assay; assay type: cell-based, Bos taurus; details: cattle

1) C/C(=N\O)c1ccc2[nH]c(-c3ccccc3)nc2c1	> 100 µM
2) CC(=O)c1ccc2c(c1)nc(-c1ccoc1)n2C1CCCCC1	> 100 µM
3) CC(=O)c1ccc2[nH]c(-c3ccc(C(F)(F)F)cc3)nc2c1	> 100 µM
4) CC(=O)c1ccc2c(c1)nc(-c1ccc(Cl)cc1)n2C1CCCCC1	> 100 µM
5) COc1ccc(-c2nc3cc(/C(C)=N/NC(N)=S)ccc3n2C2CCCCC2)cc1	32 µM
6) COc1ccc(-c2nc3cc(C(C)=O)ccc3[nH]2)c(OC)c1OC	> 100 µM
7) C/C(=N\NC(N)=S)c1ccc2c(c1)nc(-c1ccccc1)n2C1CCCCC1	24 µM
8) C/C(=N\O)c1ccc2[nH]c(-c3ccc(C(F)(F)F)cc3)nc2c1	55 µM

-- ask Given C/C(=N\NC(N)=O)c1ccc2c(c1)nc(-c1ccoc1)n2C1CCCCC1 , state its recorded CC50.
-- reply > 100 µM

-- ask Also check COc1ccc(-c2nc3cc(C(C)O)ccc3[nH]2)c(OC)c1OC (stereo unspecified)
-- reply 60 µM

-- ask Also check C/C(=N\NC(N)=S)c1ccc2[nH]c(-c3ccoc3)nc2c1
-- reply > 100 µM
